Values were extracted from patent US20240251792A1.

Let's look at some compounds and their measured pest or weed control at 1000 g/ha.
Tested on: AMARE
Experiment: Pre-emergence biological efficacy (Table 3)
Format: in vivo
Details: Amaranthus retroflexus, 312 h, 1000 g/ha, after 13 days, read-out: evaluation (100=total damage to plant; 0=no damage to plant)
Response body: numeric value in %, unit text excluded.

INSERT INTO assay_data (compound, value_type, scale_unit, experimental_value) VALUES
  ('CCOC(=O)C(F)(F)c1cccc2ccccc12 [Compound 3-397, Ethyl 2,2-difluoro-2-(1-naphthyl)acetate]', 'pest or weed control at 1000 g/ha', '%', 10);

For the next question, use this compound.
Q) For AMARE, give the measured pest or weed control at 1000 g/ha of the entry Cc1ccc2onc(C)c2c1C(F)(F)C(=O)O [Compound 1-396]
A) 0
